Where these numbers come from: paper PMC6328046

- Test Target: HDAC2 (Homo sapiens)
- Sequence (Q92769 whole entry): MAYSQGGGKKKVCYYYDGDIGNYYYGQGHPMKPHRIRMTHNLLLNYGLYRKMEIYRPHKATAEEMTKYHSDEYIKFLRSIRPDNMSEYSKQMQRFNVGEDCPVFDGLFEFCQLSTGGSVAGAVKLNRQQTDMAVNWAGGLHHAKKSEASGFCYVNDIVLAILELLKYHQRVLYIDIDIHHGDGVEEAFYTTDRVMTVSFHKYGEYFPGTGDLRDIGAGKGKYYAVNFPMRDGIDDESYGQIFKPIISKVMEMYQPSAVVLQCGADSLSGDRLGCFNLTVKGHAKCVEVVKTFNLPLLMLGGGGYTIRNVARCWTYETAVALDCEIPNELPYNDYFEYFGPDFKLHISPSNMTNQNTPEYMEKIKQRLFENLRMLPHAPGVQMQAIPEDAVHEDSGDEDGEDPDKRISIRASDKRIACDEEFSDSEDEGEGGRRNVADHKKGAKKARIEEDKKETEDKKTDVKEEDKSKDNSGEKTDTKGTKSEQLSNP
- Method Notes: surface plasmon resonance with recombinant HDAC2
Measurement Label: pKd
The value called pKd is obtained by taking minus log10 of the concentration in mol/L.

pKd lookup needed for `COc1ccc(Nc2nnc(-c3ccc(C(=O)NO)cc3)o2)cc1` , thanks. 4.89
